Property: Trimeric HA Binding RLU; scope: individual binders
Assayed System: recombinant homotrimeric HA, A/California/4/09 H1N1 (Influenza A virus A/California/4/09 (H1N1))
Measurement Description: trimeric HA microarray, transfection set 3
Particulars: remark: other sources report otherwise
Write the number in RLU without appending the unit.

Past entries and their recorded results:
{"columns": ["Binder", "Trimeric HA Binding RLU (RLU)"],
 "data": [
  ["TCN-533 (5256_A17) (antibody, V domains shown) VH: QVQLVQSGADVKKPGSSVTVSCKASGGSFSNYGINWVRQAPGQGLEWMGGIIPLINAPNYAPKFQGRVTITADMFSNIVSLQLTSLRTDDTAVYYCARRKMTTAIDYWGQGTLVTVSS VL: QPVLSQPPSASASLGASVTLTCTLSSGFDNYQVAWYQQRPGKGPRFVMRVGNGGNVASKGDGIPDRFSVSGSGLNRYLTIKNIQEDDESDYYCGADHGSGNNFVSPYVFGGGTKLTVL", 6880],
  ["TCN-523 (5248_A17) (antibody, V domains shown) VH: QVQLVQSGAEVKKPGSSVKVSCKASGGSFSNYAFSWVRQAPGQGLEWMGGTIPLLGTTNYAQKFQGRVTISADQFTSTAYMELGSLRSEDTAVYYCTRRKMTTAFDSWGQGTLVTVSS VL: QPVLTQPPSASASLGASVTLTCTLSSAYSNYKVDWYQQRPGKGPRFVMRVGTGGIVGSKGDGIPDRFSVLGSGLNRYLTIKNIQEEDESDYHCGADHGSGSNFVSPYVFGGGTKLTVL", 19400],
  ["TCN-530 (5248_H10a) (antibody, V domains shown) VH: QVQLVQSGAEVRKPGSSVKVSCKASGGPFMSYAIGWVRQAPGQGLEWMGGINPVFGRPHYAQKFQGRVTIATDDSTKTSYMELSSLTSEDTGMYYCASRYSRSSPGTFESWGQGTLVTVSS VL: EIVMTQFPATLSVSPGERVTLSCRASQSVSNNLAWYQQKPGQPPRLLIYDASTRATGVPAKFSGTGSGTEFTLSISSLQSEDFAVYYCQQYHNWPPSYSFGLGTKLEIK", 21200]
]}

Fill in the blank: the reported Trimeric HA Binding RLU of TCN-504 (3251_K17) (antibody, V domains shown) VH: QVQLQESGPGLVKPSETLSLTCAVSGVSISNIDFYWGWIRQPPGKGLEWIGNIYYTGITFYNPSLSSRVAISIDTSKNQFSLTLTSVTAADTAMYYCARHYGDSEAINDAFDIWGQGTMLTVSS VL: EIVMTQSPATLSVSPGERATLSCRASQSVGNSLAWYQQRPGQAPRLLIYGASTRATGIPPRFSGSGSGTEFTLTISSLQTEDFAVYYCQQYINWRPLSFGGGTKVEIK is ____.
18600
